The measured values listed here are drawn from ChEMBL document CHEMBL4052799.

Catalogue of compounds with associated pIC50
target: Glutamate receptor ionotropic, NMDA 2B (Rattus norvegicus); assay: Displacement of [3H]-ifenprodil from NR2B in Wistar rat brain membrane after 120 mins by liquid scintillation counting analysis
pIC50: −log10 of the molar value.
Reported Property: pIC50

O=c1ccc(-c2cc(C[C@]3(O)CC[C@@H](Cc4ccccc4)CC3)no2)c[nH]1    7.60
O[C@]1(Cc2cc(-c3cn[nH]c3)on2)CC[C@H](Cc2ccc(Cl)cc2)CC1    7.40
O=C(C[C@]1(O)CC[C@@H](Cc2ccccc2)CC1)Nc1ccc2[nH]c(=O)oc2c1    7.80
O[C@]1(Cc2cc(-c3cn[nH]c3)on2)CC[C@H](Cc2ccc(F)cc2)CC1    7.90
O=C(C[C@]1(O)CC[C@H](Cc2ccc(F)cc2)CC1)Nc1ccc2[nH]c(=O)oc2c1    7.40
O[C@]1(Cc2cc(-c3cn[nH]c3)on2)CC[C@H](Cc2ccccc2)CC1    7.40
O=c1ccc(-c2nc(C[C@]3(O)CC[C@@H](Cc4ccc(Cl)cc4)CC3)no2)c[nH]1    6.90
O=c1ccc(-c2cc(C[C@]3(O)CC[C@H](Cc4ccc(Cl)cc4)CC3)no2)c[nH]1    6.50
O[C@]1(Cc2cc(-c3cn[nH]c3)on2)CC[C@@H](Cc2ccc(Cl)cc2)CC1    6.20

* * *

Catalogue of compounds with associated inhibition at 10 min, 1 µM
molecular target: hERG (KCNH2) (Homo sapiens); assay: Inhibition of human ERG expressed in HEK293 cells at 1 uM after 10 mins by whole cell patch clamp method relative to control; format: cell-based; conditions: HEK293 cells that express hERG
Sequence (Q12809 whole entry): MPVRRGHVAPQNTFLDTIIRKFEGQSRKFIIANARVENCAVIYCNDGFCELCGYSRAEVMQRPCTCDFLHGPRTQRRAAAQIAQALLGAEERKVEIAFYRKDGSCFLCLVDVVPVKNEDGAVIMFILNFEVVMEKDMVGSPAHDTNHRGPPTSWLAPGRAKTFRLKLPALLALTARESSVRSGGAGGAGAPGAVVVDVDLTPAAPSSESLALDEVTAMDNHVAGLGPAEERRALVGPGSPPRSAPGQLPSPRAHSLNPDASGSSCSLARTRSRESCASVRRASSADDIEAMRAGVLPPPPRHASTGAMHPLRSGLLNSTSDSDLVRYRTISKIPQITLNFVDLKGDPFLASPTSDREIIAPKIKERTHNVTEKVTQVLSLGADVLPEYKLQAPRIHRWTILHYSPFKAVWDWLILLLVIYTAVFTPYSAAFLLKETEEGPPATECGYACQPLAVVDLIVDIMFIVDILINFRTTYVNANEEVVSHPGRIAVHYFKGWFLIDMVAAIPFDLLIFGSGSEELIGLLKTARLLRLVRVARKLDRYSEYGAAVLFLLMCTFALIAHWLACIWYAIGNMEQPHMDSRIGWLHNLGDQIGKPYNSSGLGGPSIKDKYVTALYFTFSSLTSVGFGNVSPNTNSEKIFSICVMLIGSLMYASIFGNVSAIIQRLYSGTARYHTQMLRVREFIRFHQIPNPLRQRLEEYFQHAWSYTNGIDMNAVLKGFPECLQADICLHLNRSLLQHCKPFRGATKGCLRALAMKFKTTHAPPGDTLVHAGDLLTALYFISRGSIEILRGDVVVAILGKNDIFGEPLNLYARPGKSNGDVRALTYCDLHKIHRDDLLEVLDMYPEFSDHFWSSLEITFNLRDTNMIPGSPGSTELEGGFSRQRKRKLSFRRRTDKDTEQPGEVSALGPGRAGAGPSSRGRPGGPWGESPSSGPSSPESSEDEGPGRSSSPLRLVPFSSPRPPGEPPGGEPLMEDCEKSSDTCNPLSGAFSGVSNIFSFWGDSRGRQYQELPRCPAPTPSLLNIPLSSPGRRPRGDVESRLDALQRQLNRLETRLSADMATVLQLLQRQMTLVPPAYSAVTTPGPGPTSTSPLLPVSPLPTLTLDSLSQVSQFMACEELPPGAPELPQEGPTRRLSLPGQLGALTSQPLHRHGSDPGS
Reported Property: inhibition at 10 min, 1 µM

O=C(C[C@]1(O)CC[C@@H](Cc2ccccc2)CC1)Nc1ccc2[nH]c(=O)oc2c1    13.2%
O=C(C[C@]1(O)CC[C@@H](Cc2ccccc2)CC1)Nc1ccc2[nH]ncc2c1    18%
O[C@]1(Cc2cc(-c3cn[nH]c3)on2)CC[C@H](Cc2ccc(Cl)cc2)CC1    32%
O=C1CCc2cc(NC(=O)C[C@]3(O)CC[C@@H](Cc4ccccc4)CC3)ccc2N1    11.3%
O=C1Cc2cc(NC(=O)C[C@]3(O)CC[C@@H](Cc4ccccc4)CC3)ccc2N1    12.1%

* * *

Catalogue of compounds with associated bioavailability
test: Oral bioavailability in Sprague-Dawley rat at 1 mg/kg administered through cassette dosing; type: ADME, organism-based; conditions: in vivo
Reported Property: bioavailability (%)

O=C1Cc2cc(NC(=O)C[C@]3(O)CC[C@@H](Cc4ccccc4)CC3)ccc2N1    28.2
O=c1ccc(-c2cc(C[C@]3(O)CC[C@@H](Cc4ccccc4)CC3)no2)c[nH]1    53.1
O=C(C[C@]1(O)CC[C@H](Cc2ccccc2)CC1)Nc1ccc2[nH]c(=O)oc2c1    33
COc1ccc(C[C@H]2CC[C@](O)(Cc3cc(-c4cn[nH]c4)on3)CC2)cc1    23.7
O[C@]1(Cc2cc(-c3cn[nH]c3)on2)CC[C@H](Cc2ccc(OC(F)(F)F)cc2)CC1    121

* * *

assay: Ratio of drug level in brain to plasma in Sprague-Dawley rat at 0.5 mg/kg, iv administered through cassette dosing measured after 0.5 hrs; assay type: ADME, organism-based; settings: brain and plasma
Catalogue of compounds with associated Kp at 0.5 h
Reported Property: Kp at 0.5 h

COc1ccc(C[C@H]2CC[C@](O)(CC(=O)Nc3ccc4[nH]c(=O)oc4c3)CC2)cc1    0.11
O=C(C[C@]1(O)CC[C@H](Cc2ccc(F)cc2)CC1)Nc1ccc2[nH]c(=O)oc2c1    0.23
O[C@]1(Cc2cc(-c3cn[nH]c3)on2)CC[C@H](Cc2ccc(F)cc2)CC1    1.62
O=C1CCc2cc(NC(=O)C[C@]3(O)CC[C@@H](Cc4ccccc4)CC3)ccc2N1    0.18
O=C(C[C@]1(O)CC[C@H](Cc2ccccc2)CC1)Nc1ccc2[nH]c(=O)oc2c1    0.9
O=C(C[C@]1(O)CC[C@@H](Cc2ccccc2)CC1)Nc1ccc2[nH]ncc2c1    0.9
O=C(C[C@]1(O)CC[C@@H](Cc2ccc(OC(F)(F)F)cc2)CC1)Nc1ccc2[nH]c(=O)oc2c1    0.15
O=C(C[C@]1(O)CC[C@@H](Cc2ccc(F)cc2)CC1)Nc1ccc2[nH]c(=O)oc2c1    0.12
O[C@]1(Cc2cc(-c3cn[nH]c3)on2)CC[C@H](Cc2ccc(C(F)(F)F)cc2)CC1    2.66
O=c1ccc(-c2cc(C[C@]3(O)CC[C@@H](Cc4ccccc4)CC3)no2)c[nH]1    0.34
O[C@]1(Cc2cc(-c3cn[nH]c3)on2)CC[C@H](Cc2ccc(Cl)cc2)CC1    1.31
O=C(C[C@]1(O)CC[C@@H](Cc2ccc(F)c(F)c2)CC1)Nc1ccc2[nH]c(=O)oc2c1    0.14
COc1ccc(C[C@H]2CC[C@](O)(Cc3cc(-c4cn[nH]c4)on3)CC2)cc1    1.64
O=c1[nH]c2ccc(-c3cc(C[C@]4(O)CC[C@@H](Cc5ccccc5)CC4)no3)cc2o1    0.92
O[C@]1(Cc2cc(-c3cn[nH]c3)on2)CC[C@H](Cc2ccc(F)c(F)c2)CC1    1.99
O=C(Nc1ccc2[nH]c(=O)oc2c1)C(=O)N1CCC(Cc2ccc(F)cc2)CC1    1
O=C(C[C@]1(O)CC[C@@H](Cc2ccccc2)CC1)Nc1ccc2[nH]c(=O)oc2c1    0.25
O=c1ccc(-c2cc(C[C@]3(O)CC[C@H](Cc4ccc(Cl)cc4)CC3)no2)c[nH]1    0.47

* * *

Catalogue of compounds with associated IC50
molecular target: Glutamate receptor ionotropic, NMDA 2B (Rattus norvegicus, UniProt Q00960); assay: Displacement of [3H]-ifenprodil from NR2B in Wistar rat brain membrane after 120 mins by liquid scintillation counting analysis
Sequence (Q00960 whole entry): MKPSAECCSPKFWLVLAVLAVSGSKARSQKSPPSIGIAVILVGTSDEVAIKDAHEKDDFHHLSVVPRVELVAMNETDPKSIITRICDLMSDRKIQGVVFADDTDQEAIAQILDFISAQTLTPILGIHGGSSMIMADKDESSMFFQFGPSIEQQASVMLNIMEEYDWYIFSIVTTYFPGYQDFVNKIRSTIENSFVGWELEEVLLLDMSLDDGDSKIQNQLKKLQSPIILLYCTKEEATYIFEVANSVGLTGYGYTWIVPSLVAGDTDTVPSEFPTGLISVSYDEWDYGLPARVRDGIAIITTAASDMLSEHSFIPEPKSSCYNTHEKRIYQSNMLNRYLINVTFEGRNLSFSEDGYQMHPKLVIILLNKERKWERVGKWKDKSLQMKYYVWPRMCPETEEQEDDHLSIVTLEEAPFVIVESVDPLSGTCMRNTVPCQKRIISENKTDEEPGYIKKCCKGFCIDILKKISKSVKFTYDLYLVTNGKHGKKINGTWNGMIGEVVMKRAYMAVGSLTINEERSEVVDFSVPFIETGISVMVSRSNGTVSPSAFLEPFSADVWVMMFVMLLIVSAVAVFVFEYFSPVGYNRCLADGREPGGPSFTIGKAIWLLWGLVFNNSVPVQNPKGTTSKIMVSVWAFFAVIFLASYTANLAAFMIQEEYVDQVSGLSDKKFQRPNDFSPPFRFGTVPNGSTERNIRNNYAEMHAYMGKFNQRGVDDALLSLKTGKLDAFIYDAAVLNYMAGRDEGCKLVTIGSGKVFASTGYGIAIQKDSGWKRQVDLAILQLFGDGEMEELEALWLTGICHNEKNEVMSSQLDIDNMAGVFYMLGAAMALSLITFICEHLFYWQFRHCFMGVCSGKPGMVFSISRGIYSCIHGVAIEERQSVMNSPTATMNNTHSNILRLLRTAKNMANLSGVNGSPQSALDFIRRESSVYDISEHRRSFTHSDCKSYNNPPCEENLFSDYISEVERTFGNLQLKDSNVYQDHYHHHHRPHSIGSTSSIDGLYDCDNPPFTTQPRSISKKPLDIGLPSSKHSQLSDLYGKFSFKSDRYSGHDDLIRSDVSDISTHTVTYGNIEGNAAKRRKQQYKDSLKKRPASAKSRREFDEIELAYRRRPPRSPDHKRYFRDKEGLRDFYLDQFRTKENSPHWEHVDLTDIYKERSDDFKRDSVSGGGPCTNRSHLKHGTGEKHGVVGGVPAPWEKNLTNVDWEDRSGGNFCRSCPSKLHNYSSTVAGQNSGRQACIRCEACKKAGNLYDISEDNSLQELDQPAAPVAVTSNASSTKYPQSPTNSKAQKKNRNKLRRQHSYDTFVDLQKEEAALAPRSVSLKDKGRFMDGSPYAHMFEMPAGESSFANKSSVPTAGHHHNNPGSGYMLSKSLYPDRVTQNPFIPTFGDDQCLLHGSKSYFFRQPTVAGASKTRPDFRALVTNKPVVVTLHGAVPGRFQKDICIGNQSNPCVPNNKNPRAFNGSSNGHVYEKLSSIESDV
Reported Property: IC50 (nM)

COc1ccc(C[C@H]2CC[C@](O)(Cc3cc(-c4cn[nH]c4)on3)CC2)cc1    39.8
O=C1CCc2cc(NC(=O)C[C@]3(O)CC[C@@H](Cc4ccccc4)CC3)ccc2N1    31.6
O=c1ccc(-c2cc(C[C@]3(O)CC[C@@H](Cc4ccc(Cl)cc4)CC3)no2)c[nH]1    25.1
O[C@]1(Cc2cc(-c3cn[nH]c3)on2)CC[C@H](Cc2ccc(C(F)(F)F)cc2)CC1    100
O=C(C[C@]1(O)CC[C@@H](Cc2ccc(F)cc2)CC1)Nc1ccc2[nH]c(=O)oc2c1    25.1

* * *

target: Glutamate receptor ionotropic, NMDA 2B (Mus musculus, UniProt P35438+Q01097); assay: Antagonist activity at mouse NR2B expressed in Hek293 cells co-expressing mouse NR1 assessed as inhibition of glutamic acid/glycine-induced intracellular Ca2+ levels measured after 1 day post induction by Fluo-3/AM dye-based fluorescence assay
Sequence (Q01097 whole entry, one chain of several): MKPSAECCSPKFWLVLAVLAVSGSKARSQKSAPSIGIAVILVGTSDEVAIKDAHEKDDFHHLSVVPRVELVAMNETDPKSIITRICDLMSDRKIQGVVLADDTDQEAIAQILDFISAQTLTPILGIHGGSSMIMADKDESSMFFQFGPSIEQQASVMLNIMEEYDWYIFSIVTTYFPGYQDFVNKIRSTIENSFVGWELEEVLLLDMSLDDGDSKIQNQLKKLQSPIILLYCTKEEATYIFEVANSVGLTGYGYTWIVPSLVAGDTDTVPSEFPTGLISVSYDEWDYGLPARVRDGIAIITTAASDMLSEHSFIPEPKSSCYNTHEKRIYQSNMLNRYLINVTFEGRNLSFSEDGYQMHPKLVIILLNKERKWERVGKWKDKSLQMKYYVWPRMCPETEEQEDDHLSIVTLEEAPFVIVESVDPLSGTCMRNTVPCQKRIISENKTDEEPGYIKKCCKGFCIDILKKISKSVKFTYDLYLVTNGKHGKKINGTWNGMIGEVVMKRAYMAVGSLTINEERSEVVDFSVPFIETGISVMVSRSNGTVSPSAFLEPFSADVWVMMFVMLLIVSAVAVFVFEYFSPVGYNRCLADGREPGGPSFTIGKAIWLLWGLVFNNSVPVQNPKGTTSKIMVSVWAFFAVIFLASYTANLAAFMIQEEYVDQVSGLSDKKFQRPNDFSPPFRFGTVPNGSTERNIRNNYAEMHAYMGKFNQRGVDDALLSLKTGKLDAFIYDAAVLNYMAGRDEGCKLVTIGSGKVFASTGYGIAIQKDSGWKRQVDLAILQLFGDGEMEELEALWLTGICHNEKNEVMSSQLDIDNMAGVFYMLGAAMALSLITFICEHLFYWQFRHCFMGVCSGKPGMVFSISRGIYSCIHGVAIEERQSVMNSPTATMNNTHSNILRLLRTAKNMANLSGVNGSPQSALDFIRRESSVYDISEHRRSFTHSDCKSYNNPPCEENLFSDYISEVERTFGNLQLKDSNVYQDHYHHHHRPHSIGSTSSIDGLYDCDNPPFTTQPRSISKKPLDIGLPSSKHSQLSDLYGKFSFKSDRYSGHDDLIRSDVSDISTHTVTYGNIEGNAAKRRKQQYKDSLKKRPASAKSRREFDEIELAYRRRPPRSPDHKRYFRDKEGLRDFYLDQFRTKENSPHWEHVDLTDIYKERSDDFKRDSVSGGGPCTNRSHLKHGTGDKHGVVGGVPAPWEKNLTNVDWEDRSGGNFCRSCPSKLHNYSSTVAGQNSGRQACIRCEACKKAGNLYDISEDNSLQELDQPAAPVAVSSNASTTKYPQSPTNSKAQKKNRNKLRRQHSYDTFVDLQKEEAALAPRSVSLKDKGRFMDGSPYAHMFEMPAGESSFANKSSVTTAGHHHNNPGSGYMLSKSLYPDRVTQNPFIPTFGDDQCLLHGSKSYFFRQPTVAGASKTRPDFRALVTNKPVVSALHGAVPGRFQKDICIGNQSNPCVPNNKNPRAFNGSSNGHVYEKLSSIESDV
pIC50: −log10 of the molar value.
Catalogue of molecules with associated pIC50
Reported Property: pIC50

O=C(Nc1ccc2[nH]c(=O)oc2c1)C(=O)N1CCC(Cc2ccc(F)cc2)CC1    8.50
O=c1ccc(-c2cc(C[C@]3(O)CC[C@H](Cc4ccc(Cl)cc4)CC3)no2)c[nH]1    7.20
O=C(C[C@]1(O)CC[C@@H](Cc2ccc(F)cc2)CC1)Nc1ccc2[nH]c(=O)oc2c1    9.20
O=C(C[C@]1(O)CC[C@@H](Cc2ccc(OC(F)(F)F)cc2)CC1)Nc1ccc2[nH]c(=O)oc2c1    8.50

* * *

biological target: UniProt:Q12809; assay: Inhibition of human ERG expressed in HEK293 cells at 1 uM after 10 mins by whole cell patch clamp method relative to control; assay type: cell-based; conditions: HEK293 cells that express hERG
Label fulfilled when inhibition at 10 min, 1 µM is at or above 20%; otherwise label not fulfilled.

O[C@]1(Cc2cc(-c3cn[nH]c3)on2)CC[C@H](Cc2ccccc2)CC1    not fulfilled
O=C(C[C@]1(O)CC[C@H](Cc2ccc(F)cc2)CC1)Nc1ccc2[nH]c(=O)oc2c1    not fulfilled
O[C@]1(Cc2cc(-c3cn[nH]c3)on2)CC[C@H](Cc2ccc(F)c(F)c2)CC1    not fulfilled
O=c1ccc(-c2cc(C[C@]3(O)CC[C@@H](Cc4ccccc4)CC3)no2)c[nH]1    not fulfilled
O=C(C[C@]1(O)CC[C@H](Cc2ccccc2)CC1)Nc1ccc2[nH]c(=O)oc2c1    not fulfilled
O[C@]1(Cc2cc(-c3cn[nH]c3)on2)CC[C@H](Cc2ccc(F)cc2)CC1    fulfilled
O=c1ccc(-c2cc(C[C@]3(O)CC[C@@H](Cc4ccc(Cl)cc4)CC3)no2)c[nH]1    fulfilled
O=C(C[C@]1(O)CC[C@@H](Cc2ccc(F)cc2)CC1)Nc1ccc2[nH]c(=O)oc2c1    fulfilled
O=c1ccc(-c2cc(C[C@]3(O)CC[C@H](Cc4ccc(Cl)cc4)CC3)no2)c[nH]1    fulfilled
